Reported z-score values are given for each entry in this list.
test: E. coli acrAB mutant growth effects, primary screen, E. coli filamentation inducers, strain DRC39, OD650, 48 h (AID 1179);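 also: screen aims at cell division blockers that make cells filament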; settings: E. coli DRC39 delta-acrAB growth, higher = more signal, called active from +8 up or from −8 down
I only need the number, thanks.

Recorded results for 5 molecules are shown here.
| molecule | z-score |
| --- | --- |
| CCOC(=O)CCN1C(=O)[C@H]2[C@H]3[C@H](O)[C@H](O)CC(=O)[C@@H]3CC[C@H]2C1=O | -0.897 |
| C[C@H]1CC[C@H]2C(=O)O[C@H](CO)CN2[C@@H]1c1ccc(Br)cc1 | -0.016 |
| CC(C)(C)N1C(=O)[C@H]2[C@H]3[C@H](O)[C@H](O)CC(=NOC[C@@H](O)COCc4ccco4)[C@H]3CC[C@H]2C1=O | -0.149 |
| COc1cccc([C@H](O)Cn2cc(-c3ccc(CON=C(C)C)cc3)nn2)c1 | 0.291 |
| O=C1C2=CC[C@H]3C(=O)N(Cc4ccccc4)C(=O)[C@H]3[C@H]2[C@H](O)[C@@H]2O[C@H]12 | -0.425 |

z-score reported for this molecule CCOC(=O)[C@H](Cc1ccccc1)NC(=O)CCC1CC(OC(=O)NCc2ccc3c(c2)OCO3)CC2(CCCC(COC(=O)NCCOC)O2)O1 (stereo partly drawn) : 0.525

z-score reported for this molecule "CC(CCN1CCc2nc(-c3ccccc3)c(-c3ccccc3)cc2C1)=NO[C@@H](C)c1cc(-c2c(C)cc(C)cc2C)no1" : -1.01

z-score reported for this molecule "COc1ccc(COC(=O)NN=C2C[C@@H](O)[C@@H](O)[C@@H]3[C@@H]4C(=O)N(C[C@@H]5CCCO5)C(=O)[C@@H]4CC[C@@H]23)cc1" : 1.11

Source: PubChem BioAssay
